ASSAY_SYSTEM: Histone deacetylase 11 (Homo sapiens)
Sequence (Q96DB2 whole entry): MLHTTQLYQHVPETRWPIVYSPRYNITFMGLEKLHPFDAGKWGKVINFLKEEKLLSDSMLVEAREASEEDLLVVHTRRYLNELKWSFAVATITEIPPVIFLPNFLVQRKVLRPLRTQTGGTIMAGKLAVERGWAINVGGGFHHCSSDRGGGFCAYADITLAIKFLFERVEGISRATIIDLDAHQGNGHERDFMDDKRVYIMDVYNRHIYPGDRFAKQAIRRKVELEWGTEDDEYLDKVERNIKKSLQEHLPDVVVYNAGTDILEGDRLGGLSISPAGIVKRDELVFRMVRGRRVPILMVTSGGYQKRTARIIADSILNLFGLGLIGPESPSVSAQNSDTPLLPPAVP
ASSAY_OVERVIEW: Inhibition of full length human recombinant HDAC11 (1 to 347 end residues) expressed in Sf9 cells using AcetylETDKmyr-AMC as substrate preincubated with enzyme for 1 hr followed by substrate addition and measured after 30 mins by fluorescence analysis
OBSERVED_PROPERTY: pIC50
Numbers only, as −log10 of the molar value.

State its pIC50 for this compound: CCCCCCCCCCCCCCCCNNC(=O)c1cccs1 6.43
